- EXPERIMENTAL_PROTOCOL: qHTS assay for small molecules that induce genotoxicity in human embryonic kidney cells expressing luciferase-tagged ATAD5 (AID 651632); note: nearly all actives have a fitted effect of over 15% in size
- CONDITIONS: HEK293T ATAD5-luciferase induction, 16 h; series mostly up to 83.3 µM
Records with an inconclusive call do not appear. Activity calls are given as the source filed them. Calls come from the whole dose curve; as a rule, active = well fitted activation curve with a large enough effect in the repeat runs; inconclusive = weak or mixed curves; inactive = no such curve, though single readings can be large or run the other way.
The categories you may choose from are active, inactive

Prompt: For this compound, state the assay outcome: CC1(C)[C@@H](OC(=O)CCC(=O)O)CC[C@]2(C)[C@H]3C(=O)C=C4[C@@H]5C[C@@](C)(C(=O)O)CC[C@]5(C)CC[C@@]4(C)[C@]3(C)CC[C@@H]12
Response: inactive

Prompt: What would you report for C(=C\c1ccccc1)/c1ccccc1 ?
Response: inactive

Prompt: Also CCC1(CO)COCOC1 ?
Response: inactive

Prompt: Quick one: Oc1cccc(O)c1O
Response: inactive

Prompt: Repeat with CCCCCCCCCI
Response: inactive

Prompt: Please do the same for CC(=O)Oc1ccc([N+](=O)[O-])cc1CCl as well.
Response: inactive

Prompt: # iterate: C/C=C\C/C=C/CCCCCCCCOC(C)=O
Response: inactive

Prompt: Try this compound next: O=C1c2ccccc2C(=O)C1(O)O
Response: inactive

Prompt: Same read-out for CCCCCC[C@@H](O)C/C=C\CCCCCCCC(=O)O ?
Response: inactive

Prompt: Another compound to look at: CC1(C)S[C@@H]2[C@H](NC(=O)C(c3ccccc3)S(=O)(=O)O)C(=O)N2[C@H]1C(=O)O (stereo partly specified)
Response: inactive

Prompt: And NC(=O)c1ccncc1 ?
Response: inactive

Prompt: Let us now turn to CC(=O)Nc1cc(S(=O)(=O)O)cc2cc(S(=O)(=O)O)c(N=Nc3ccccc3)c(O)c12
Response: inactive
